Can you tell me binding signal for the items I'm about to list?
- TARGET_ENTITY: GST-Aq-NF-kB (Amphimedon queenslandica, UniProt A9Y5G7 2-389)
- Sequence: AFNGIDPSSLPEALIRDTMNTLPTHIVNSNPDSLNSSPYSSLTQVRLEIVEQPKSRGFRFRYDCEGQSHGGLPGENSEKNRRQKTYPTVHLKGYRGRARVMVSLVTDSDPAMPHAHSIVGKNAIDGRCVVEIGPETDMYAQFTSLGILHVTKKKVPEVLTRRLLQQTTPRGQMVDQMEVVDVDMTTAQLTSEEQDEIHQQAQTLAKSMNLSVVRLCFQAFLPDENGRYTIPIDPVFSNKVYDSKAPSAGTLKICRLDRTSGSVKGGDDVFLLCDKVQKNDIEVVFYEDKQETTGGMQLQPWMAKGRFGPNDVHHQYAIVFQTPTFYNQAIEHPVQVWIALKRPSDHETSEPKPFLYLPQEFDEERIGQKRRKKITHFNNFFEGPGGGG
- ASSAY_NOTES: protein-binding microarray (PBM); PBM: ~300 nM protein, 6 mM HEPES pH 7.8, 80 mM KCl, 0.5 mM EDTA, 0.5 mM EGTA, 6% glycerol, 35 ng/ul poly-dIdC, 1% milk, 1 h, room temperature; Ap Aiptasia and Nv Nematostella (sea anemones) / Co Capsaspora / Aq Amphimedon (sponge) / Dm Drosophila / Hu human; RHD is the Rel homology domain; high values mean tight binding
- TEST_CONDITIONS: dsDNA, one strand shown
Answers are plain numbers, in z-score.

Recorded binding signal, per entry:
INSERT INTO results (biopolymer_sequence, target_entity, reported_property, reported_result) VALUES
  ('CCGATTAACATCAATGGGAAAATTGATGTTAATCGGGTCTTGATTCGCTTGACGCTGCTG', 'GST-Aq-NF-kB (Amphimedon queenslandica, UniProt A9Y5G7 2-389)', 'binding signal', 3.05),
  ('CCGATTAACATCAAACTTCCCCTTGATGTTAATCGGGTCTTGATTCGCTTGACGCTGCTG', 'GST-Aq-NF-kB (Amphimedon queenslandica, UniProt A9Y5G7 2-389)', 'binding signal', 7.66),
  ('CCGATTAACATCAAAAACCACCCTGATGTTAATCGGGTCTTGATTCGCTTGACGCTGCTG', 'GST-Aq-NF-kB (Amphimedon queenslandica, UniProt A9Y5G7 2-389)', 'binding signal', 4.53),
  ('CCGATTAACATCAGGCAATCCCCTGATGTTAATCGGGTCTTGATTCGCTTGACGCTGCTG', 'GST-Aq-NF-kB (Amphimedon queenslandica, UniProt A9Y5G7 2-389)', 'binding signal', 7.01),
  ('CCGATTAACATCAGGAAGTACCCTGATGTTAATCGGGTCTTGATTCGCTTGACGCTGCTG', 'GST-Aq-NF-kB (Amphimedon queenslandica, UniProt A9Y5G7 2-389)', 'binding signal', 6.15),
  ('CCGATTAACATCACGGCAATTCCTGATGTTAATCGGGTCTTGATTCGCTTGACGCTGCTG', 'GST-Aq-NF-kB (Amphimedon queenslandica, UniProt A9Y5G7 2-389)', 'binding signal', 1.38),
  ('CCGATTAACATCAAAAGTCCCCGTGATGTTAATCGGGTCTTGATTCGCTTGACGCTGCTG', 'GST-Aq-NF-kB (Amphimedon queenslandica, UniProt A9Y5G7 2-389)', 'binding signal', 7.44),
  ('CCGATTAACATCAATACCCCCCCTGATGTTAATCGGGTCTTGATTCGCTTGACGCTGCTG', 'GST-Aq-NF-kB (Amphimedon queenslandica, UniProt A9Y5G7 2-389)', 'binding signal', 4.66);

Q. Fill blank: measured binding signal of the sequence CCGATTAACATCAGTGGGAAACATGATGTTAATCGGGTCTTGATTCGCTTGACGCTGCTG is ____.
A. 2.03

All values here come from paper PMC5700166.
